Data origin, for the record: the METLIN SMRT retention time set (Domingo-Almenara et al. 2019)

RP-LC retention time by entry:
- assay method text: gradient 5% acetonitrile 3 min, to 50% in 2 min, to 85% in 15 min, held 3 min, 100 µL/min
- experimental parameters: column: Zorbax Extend-C18 2.1 x 50 mm; eluents: water / acetonitrile, 0.1% formic acid
Report the figure in s without appending any unit label.

Worked examples, 5 compounds total:
>  <compound>
CCN(CC)C(=O)C1CCCN(C(=O)c2nn(C)c3c2CN(C(=O)C2CCC2)CC3)C1 (stereo not given)

>  <RP-LC retention time, s>
681

$$$$
>  <compound>
CN1C(=O)c2cc(S(=O)(=O)NC3CCCCC3)ccc2Oc2cccnc21

>  <RP-LC retention time, s>
929

$$$$
>  <compound>
COc1cc(-c2noc(Cn3ccn(-c4ccccc4)c(=O)c3=O)n2)cc(OC)c1OC

>  <RP-LC retention time, s>
749

$$$$
>  <compound>
CC(C)C(=O)NCc1csc(C2CCCN(C(=O)c3cc(F)cc(F)c3)C2)n1 (stereo not given)

>  <RP-LC retention time, s>
757

$$$$
>  <compound>
O=C(c1ccccc1Cl)N1CCN=C1N1CCCCC1

>  <RP-LC retention time, s>
638

$$$$

Q. Give the measured RP-LC retention time of `COc1ccccc1-c1nnc(-c2cc(S(=O)(=O)N(C)C)ccc2Cl)o1` .
A. 904

Q. Give the measured RP-LC retention time of `O=C(Cn1c(=O)c(=O)n(Cc2ccccc2)c2ncccc21)NCc1ccccn1` .
A. 643

Q. Give the measured RP-LC retention time of CCOC(=O)c1cc(S(=O)(=O)N2CCCC2C(=O)Nc2cccc3c2CCCC3)cn1C (stereo not given) .
A. 1060

Q. Give the measured RP-LC retention time of `CC1=C(c2ccc(C)c(C)c2)S(=O)(=O)N=C1N1CCCN(C(=O)NCCC(C)C)CC1` .
A. 906

Q. Give the measured RP-LC retention time of COc1ccc(NC(=O)C2CC(=O)N(CCc3c[nH]c4ccc(OC)cc34)C2)cc1 (stereo not given) .
A. 728

Q. Give the measured RP-LC retention time of `Cc1cccc(NC(=O)C2CCN(S(=O)(=O)c3cc(C(=O)N(C)C)cs3)CC2)c1C` .
A. 790

Q. Give the measured RP-LC retention time of `c1csc(-c2nc(-c3ccc4c(c3)ncn4CCN3CCCCC3)no2)c1` .
A. 626

Q. Give the measured RP-LC retention time of `COc1ccc(-c2nc3cnccn3c2Nc2ccccc2C)cc1` .
A. 886

Q. Give the measured RP-LC retention time of `CCOc1ccc(NC(=O)Cn2c(N3CCOCC3)nc(C)cc2=O)cc1` .
A. 654

Q. Give the measured RP-LC retention time of `O=C(NCc1cccnc1)C1CCN(c2nnc3ccc(C(F)(F)F)cn23)CC1` .
A. 536

Q. Give the measured RP-LC retention time of `CCc1noc(-c2ccnc(-n3cnc(C(=O)NCc4ccccc4)c3)c2)n1` .
A. 866

Q. Give the measured RP-LC retention time of `CCN1C(=O)COc2ccc(-c3noc(-c4ccc(OC)cc4)n3)cc21` .
A. 1130

Q. Give the measured RP-LC retention time of `Cc1cc(C)n(-c2ccnc(N3CCC(C(=O)NCC(C)C)CC3)n2)n1` .
A. 768
